Would you kindly list log10(Kd) for each of these compounds?
- target desc: Human C5 (Homo sapiens)
- Construct: purchased Complement Technology
- run description: Surface plasmon resonance (SPR), compounds on immobilized human C5 (Example 2, Table 5)
- Assay type: binding
- conditions used: lowest value where a range of compound concentrations were analyzed
Please interpret these as log10 of Kd where Kd is in nM.

[in] What value of log10(Kd) has been recorded for this entry: COc1ccc(NC(=O)NC(CO)c2ccccc2C)cc1OCCCC(C)C (stereo not drawn) [SM0036]
[out] 3.63

[in] What value of log10(Kd) has been recorded for this entry: COc1ccc(NC(=O)N[C@@H](C)c2ccccc2)cc1OCC(C)(C)N(C)C [SM0107]
[out] 3.51

[in] What value of log10(Kd) has been recorded for this entry: COc1ccc(NC(=O)N[C@@H](CO)c2ccccc2)cc1C#CCCC(C)C [SM0014]
[out] 1.80

[in] What value of log10(Kd) has been recorded for this entry: COc1ccc(NC(=O)N[C@@H](CO)c2ccccc2)cc1CCCCC(C)C [SM0010]
[out] 2.03

[in] What value of log10(Kd) has been recorded for this entry: COc1ccc(NC(=O)N[C@@H](CO)c2ccccc2)cc1OCCCC#N [SM0119]
[out] 2.92

[in] What value of log10(Kd) has been recorded for this entry: COc1ccc(NC(=O)N[C@@H](CO)c2ccccc2)cc1OCCOC(C)C [SM0083]
[out] 3.81

[in] What value of log10(Kd) has been recorded for this entry: CCCCN(C)C(=O)c1cccc(NC(=O)N[C@@H](CO)c2ccccc2)c1 [SM0116]
[out] 2.84

[in] What value of log10(Kd) has been recorded for this entry: COc1ccc(NC(=O)N(C)CC(O)c2ccc(O)cc2)cc1OCCCC(C)C (stereo not drawn) [SM0071]
[out] 3.32

[in] What value of log10(Kd) has been recorded for this entry: COc1ccc(NC(=O)N2CCC[C@H]2c2ccccc2)cc1OCCCC(C)C [SM0027]
[out] 2.23

----------
- target desc: Human C5 (Homo sapiens)
- Construct: purchased Complement Technology
- run description: Surface plasmon resonance (SPR), compounds on immobilized human C5 (Example 2, Table 5)
- Assay type: binding
- conditions used: lowest value where a range of compound concentrations were analyzed
reported property: pKd
The value called pKd is obtained by taking minus log10 of the concentration in mol/L.

[in] What value of pKd has been recorded for this entry: COc1ccc(NC(=O)NCc2ccccc2C#N)cc1OCCCC(C)C [SM0067]
[out] 6.76

[in] What value of pKd has been recorded for this entry: COc1ncc(NC(=O)N[C@@H](CO)c2ccccc2)cc1OCCCC(C)C [SM0042]
[out] 5.19

[in] What value of pKd has been recorded for this entry: CCCCCc1cccc(NC(=O)N[C@@H](CO)c2ccccc2)c1 [SM0087]
[out] 5.00

[in] What value of pKd has been recorded for this entry: COc1ccc(NC(=O)NC(C)c2cccnc2)cc1OCCCC(C)C (stereo not shown) [SM0037]
[out] 6.20

[in] What value of pKd has been recorded for this entry: COc1ccc(NC(=O)NCc2ccnc3[nH]ccc23)cc1OCCCC(C)C [SM0013]
[out] 7.77

[in] What value of pKd has been recorded for this entry: COc1ccc(NC(=O)NCc2ccncc2)cc1C#CCCC(C)C [SM0046]
[out] 5.07

[in] What value of pKd has been recorded for this entry: COc1ccc(NC(=O)N[C@@H](CO)c2ccc(F)cc2)cc1OCCCC(C)C [SM0023]
[out] 7.04

[in] What value of pKd has been recorded for this entry: COc1ccc(NC(=O)NCc2ccncc2)cc1OCCCC(C)C [SM0031]
[out] 5.57

[in] What value of pKd has been recorded for this entry: COc1ccc(NC(=O)NCc2ccccc2OC(F)F)cc1OCCCC(C)C [SM0104]
[out] 6.68

[in] What value of pKd has been recorded for this entry: COc1ccc(NC(=O)NCc2ccccc2O)cc1OCCCC(C)C [SM0004]
[out] 7.55

----------
Would you kindly list efflux ratio at 3 μM for each of these compounds?
- Tested on: P-glycoprotein (P-gp, MDR1)
- run description: Permeability assay, bidirectional transport, efflux ratio (Example 30, Table 34)
- Type: in vitro ADME, canine
- conditions used: dog, MDCK-MDR1, pH 7.4; read-out: MDCK-MDR efflux ratio

[in] Tell me reported efflux ratio at 3 μM for `CCCCCOc1cc(N2CCCN(Cc3ccnc4c3c(Cl)cn4CC(=O)N(C)C)C2=O)ncc1OC` , tested with P-glycoprotein (P-gp, MDR1).
[out] 9

[in] Tell me reported efflux ratio at 3 μM for `COc1cc(CC(=O)N(C)C)ccc1CN1CCCN(c2ccc(OC)c(OCCCC(C)(F)F)c2)C1=O` , tested with P-glycoprotein (P-gp, MDR1).
[out] 63

[in] Tell me reported efflux ratio at 3 μM for `COc1cc(CNC(C)=O)ccc1CN1CCCN(c2ccc(OC)c(OCCCC3CC3)c2)C1=O` , tested with P-glycoprotein (P-gp, MDR1).
[out] 60

[in] Tell me reported efflux ratio at 3 μM for `CCCCCOc1cc(N2CCCN(Cc3ccnc4c3c(Cl)cn4CC(=O)N(C)C)C2=O)ccc1OC` , tested with P-glycoprotein (P-gp, MDR1).
[out] 17

----------
Would you kindly list pIC50 for each of these molecules?
- target desc: purified human C5 (Homo sapiens)
- Sequence (P01031 19-1676): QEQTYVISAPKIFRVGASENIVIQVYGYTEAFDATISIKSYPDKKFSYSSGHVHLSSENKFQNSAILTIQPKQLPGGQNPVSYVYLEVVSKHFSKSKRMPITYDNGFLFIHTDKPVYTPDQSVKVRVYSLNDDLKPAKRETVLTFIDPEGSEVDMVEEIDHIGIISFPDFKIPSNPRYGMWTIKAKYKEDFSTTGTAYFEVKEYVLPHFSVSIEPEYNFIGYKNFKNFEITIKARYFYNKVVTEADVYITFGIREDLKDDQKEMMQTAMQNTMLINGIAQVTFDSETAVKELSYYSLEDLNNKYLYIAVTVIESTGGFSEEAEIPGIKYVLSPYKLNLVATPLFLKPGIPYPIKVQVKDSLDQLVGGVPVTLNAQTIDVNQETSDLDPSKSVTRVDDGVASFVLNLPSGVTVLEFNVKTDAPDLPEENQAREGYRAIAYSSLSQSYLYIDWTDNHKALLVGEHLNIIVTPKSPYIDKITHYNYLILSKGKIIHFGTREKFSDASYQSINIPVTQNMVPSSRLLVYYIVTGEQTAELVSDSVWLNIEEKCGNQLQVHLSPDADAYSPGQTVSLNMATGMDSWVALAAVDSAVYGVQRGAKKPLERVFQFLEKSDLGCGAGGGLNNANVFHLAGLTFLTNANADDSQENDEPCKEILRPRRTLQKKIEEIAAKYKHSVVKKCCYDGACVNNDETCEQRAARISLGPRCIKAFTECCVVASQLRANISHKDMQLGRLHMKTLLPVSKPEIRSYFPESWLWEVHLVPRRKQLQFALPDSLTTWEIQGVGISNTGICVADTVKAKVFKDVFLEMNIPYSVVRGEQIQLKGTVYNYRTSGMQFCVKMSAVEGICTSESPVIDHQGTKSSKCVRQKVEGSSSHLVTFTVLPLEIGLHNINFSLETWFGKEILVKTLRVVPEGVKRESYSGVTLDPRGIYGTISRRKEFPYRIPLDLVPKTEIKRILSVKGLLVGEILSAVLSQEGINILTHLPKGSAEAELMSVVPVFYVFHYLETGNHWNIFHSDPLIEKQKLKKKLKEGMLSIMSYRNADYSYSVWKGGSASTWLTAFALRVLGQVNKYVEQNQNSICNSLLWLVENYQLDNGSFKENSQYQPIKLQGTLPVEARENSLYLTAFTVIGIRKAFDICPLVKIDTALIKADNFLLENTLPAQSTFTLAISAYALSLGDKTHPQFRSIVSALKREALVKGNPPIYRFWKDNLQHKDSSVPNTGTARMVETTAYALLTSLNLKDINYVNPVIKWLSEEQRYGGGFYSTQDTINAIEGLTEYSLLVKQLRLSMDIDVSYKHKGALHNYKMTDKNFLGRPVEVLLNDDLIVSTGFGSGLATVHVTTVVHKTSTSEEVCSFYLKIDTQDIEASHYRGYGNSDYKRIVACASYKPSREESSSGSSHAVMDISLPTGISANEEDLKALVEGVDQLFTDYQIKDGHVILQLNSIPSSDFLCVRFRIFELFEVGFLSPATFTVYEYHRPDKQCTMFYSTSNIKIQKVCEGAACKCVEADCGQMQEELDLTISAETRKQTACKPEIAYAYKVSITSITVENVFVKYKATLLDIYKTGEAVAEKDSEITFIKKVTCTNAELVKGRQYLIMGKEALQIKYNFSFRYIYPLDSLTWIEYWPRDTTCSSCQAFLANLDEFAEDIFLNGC
- run description: Red blood cell (RBC) hemolysis assay, optical, absorbance 412 nm (Example 10, Table 19)
- Format: cell-based
- conditions used: antibody-sensitized sheep erythrocytes, […] human C5 depleted sera, 0.5 nM purified human C5, absorbance 412 nm; read-out: RBC Hemolysis IC50
The value called pIC50 is obtained by taking minus log10 of the concentration in mol/L.

[in] What value of pIC50 has been recorded for this entry: COc1ccc(NC(=O)NCc2cccc3c2ncn3S(=O)(=O)c2ncc[nH]2)cc1OCCCC(C)C [Compound C5INH-0500]
[out] 6.25

[in] What value of pIC50 has been recorded for this entry: COc1ccc(NC(=O)N[C@@H](CO)c2ccccc2)cc1C(O)CCCC(C)C (some centres unmarked) [Compound C5INH-0367]
[out] 6.32

[in] What value of pIC50 has been recorded for this entry: COc1ccc(NC(=O)N[C@@H](CO)c2ccccc2O)cc1OCCCC(C)C [Compound C5INH-0395]
[out] 7.87

[in] What value of pIC50 has been recorded for this entry: COc1ccc(CNC(=O)Nc2ccc(OC)c(OCCCC(C)C)c2)cn1 [Compound C5INH-0498]
[out] 5.33

[in] What value of pIC50 has been recorded for this entry: COc1ccc(NC(=O)NCc2ccc(OCCN(C)C)cc2)cc1OCCCC(C)C [Compound C5INH-0318]
[out] 6.60

[in] What value of pIC50 has been recorded for this entry: COc1ccc(NC(=O)NC(CO)c2cccc3c2ccn3C)cc1OCCCC(C)C (centres unmarked) [Compound C5INH-0463]
[out] 6.09

[in] What value of pIC50 has been recorded for this entry: COc1ccc(NC(=O)N(C)Cc2cccc3ccn(C)c23)cc1OCCCC(C)C [Compound C5INH-0492]
[out] 5.58

[in] What value of pIC50 has been recorded for this entry: COc1ccc(C(CO)NC(=O)Nc2ccc(OC)c(OCCCC(C)C)c2)cc1OC (centres unmarked) [Compound C5INH-0352]
[out] 5.53

----------
- target desc: Human C5 (Homo sapiens, UniProt P01031)
- Construct: purchased Complement Technology
- run description: Red blood cell (RBC) hemolysis assay, luminescent (Example 24, Table 29)
- Format: cell-based
- conditions used: sheep EA cells, […] C5-depleted human serum, 0.5 nM human C5, 1 hour at 37° C., luminescence (Table 29)
Would you kindly list pIC50 for each of these compounds?
The value called pIC50 is obtained by taking minus log10 of the concentration in mol/L.

[in] What value of pIC50 has been recorded for this entry: CCCCCOc1cc(N2CC(COCC(=O)NCCOC)CN(Cc3cc(F)ccc3OC)C2=O)ccc1OC (centres unmarked)
[out] 6.91

[in] What value of pIC50 has been recorded for this entry: CCCCCOc1cc(N2CC(Cn3cc(C)cn3)CN(Cc3cc(F)ccc3OC)C2=O)ccc1OC (centres unmarked)
[out] 7.02

[in] What value of pIC50 has been recorded for this entry: CCCCCOc1cc(N2CC(Cn3cccn3)CN(Cc3cc(F)ccc3OC)C2=O)ccc1OC (centres unmarked)
[out] 6.99

[in] What value of pIC50 has been recorded for this entry: CCCCCOc1cc(N2CC(C(=O)Nc3ncco3)CN(Cc3cc(F)ccc3OC)C2=O)ccc1OC (centres unmarked)
[out] 7.12

[in] What value of pIC50 has been recorded for this entry: `C=C1CN(Cc2cc(F)ccc2OC)C(=O)N(c2ccc(OC)c(OCCCCC)c2)C1`
[out] 7.65

[in] What value of pIC50 has been recorded for this entry: CCCCCOc1cc(N2CC(COCC(=O)N(C)CCO)CN(Cc3cc(F)ccc3OC)C2=O)ccc1OC (centres unmarked)
[out] 7.22

[in] What value of pIC50 has been recorded for this entry: CCCCCOc1cc(N2CC[C@H](C)N(Cc3cccc4c3ccn4CC(=O)N3CCOC(CN(C)C)C3)C2=O)ccc1OC (some centres unmarked)
[out] 7.87

[in] What value of pIC50 has been recorded for this entry: `CCCCCOc1cc(N2CC3(CC3)CN(Cc3ccnc4c3ccn4CC(=O)N(C)C)C2=O)ccc1OC`
[out] 7.41
